Tested on: novel xylanase
Test: Effect of metal ions and additives on xylanase activity (DNS method)
Assay type: biochemical, Paenibacillus sp. HPL-3
Conditions: 1 mM additive; negative control = 100
readout: Relative activity according to conc. of additive (%)

compound: O=S(=O)([O-])[O-].[Zn+2] [ZnSO4]
result: 72%
--
compound: [Ca+2].[Cl-].[Cl-] [CaCl2]
result: 102%
--
compound: [Cl-].[Cs+] [CsCl2]
result: 97%
--
compound: O=S(=O)(F)Cc1ccccc1 [PMSF, Penylmethylsulfonyl fluoride]
result: 95%
--
compound: O=S(=O)([O-])[O-].[Cu+2] [CuSO4]
result: 26%
--
compound: O=Cc1ccco1 [Furfural, furfural]
result: 98%
--
compound: [Cl][Fe]([Cl])[Cl] [FeCl3]
result: 88%
--
compound: [Cl][Mn][Cl] [MnCl2]
result: 98%
--
compound: CC(=O)O [Acetate]
result: 101%
--
compound: [Cl-].[K+] [KCl]
result: 101%
--
compound: Cl.N [NH4Cl]
result: 99%
--
compound: [Cl-].[Li+] [LiCl]
result: 101%
--
compound: [Cl-].[Cl-].[Mg+2] [MgCl2]
result: 93%
--
compound: O[C@H](CS)[C@H](O)CS (racemic) [DTT, Dithiothreitol]
result: 95%
--
compound: OCCS [2-ME, 2-Mercaptoethanol]
result: 89%
